Tested on: A-549
Assay Procedure: Cell proliferation inhibition, Cell Counting Kit-8, non-small cell lung cancer cell line
Assay type: cell-based
Test Conditions: A-549 cell line; 72 hours incubation; test concentration not given
We label by threshold. Values of Cell Proliferation (% of control) strictly beneath 40% are label 1. Values of 40% and up are label 0.

Molecule	Test Target	Category
CC(C)Nc1cc(-c2ccc(N3CC(Oc4cccc(F)c4)C3)nc2)c2nccnc2c1	A-549	label 1

Challenge: hey, is Cell Proliferation (% of control) for CCNc1cc(-c2ccc(N3CC[C@H](NC(=O)c4ccccc4F)C3)nc2)c2nccnc2c1 lower than 40% or not?
Response given: label 0

Challenge: Likewise for Cc1ccc(C(=O)Nc2ccc(CN3CCN(C)CC3)c(C(F)(F)F)c2)cc1C#Cc1cnc2cccnn12 [Ponatinib, ponatinib, reference compound] ?
Response given: label 1

Challenge: Field entry: Nc1cc(-c2ccc(N3CCN(Cc4ccc(Br)cc4)CC3)nc2)c2nccnc2c1
Response given: label 1

Challenge: Do the same for O=C(Nc1cc(-c2ccc(N3CC(Oc4cccc(F)c4)C3)nc2)c2nccnc2c1)c1ccco1 please
Response given: label 0

Challenge: How about CCCCNc1cc(-c2ccc(N3CC(Oc4cccc(F)c4)C3)nc2)c2nccnc2c1 ?
Response given: label 0

Challenge: Record: CC(C)Nc1cc(-c2ccc(N3CC[C@H](NC(=O)c4ccccc4F)C3)nc2)c2nccnc2c1
Response given: label 0
